Ref: the Deep4Chem optical property database

# assayDetails: solvent given as SMILES
# details: in c1ccncc1
endpointLabel: absorption maximum (nm)
Give bare numbers, in nm.

# compound, endpointLabel, readingUnit, testResult
data = [
    ("N#CC1=C(c2ccc(-c3cccs3)s2)CCC1", "absorption maximum", "nm", 368),
    ("O=Cc1ccc(-c2ccc(C3=CCCCC3)s2)s1", "absorption maximum", "nm", 392),
    ("CN(C)c1ccc(/C=C2\\CC/C(=C\\c3ccc(C#N)cc3)C2=O)cc1", "absorption maximum", "nm", 467),
]

Parameters: items (list). Returns: absorption maximum for each item.
1. CN(C)c1ccc(/C=C/c2cc[n+](C)cc2)cc1
2. O=CC1=C(c2ccc(-c3cccs3)s2)CCC1

[A]
494
385
